Biological target: human A2a adenosine receptor (Homo sapiens)
Construct: purchased PerkinElmer RB-HA2a; host or cells: HEK293 cell plasma membrane
Sequence (P29274 whole entry): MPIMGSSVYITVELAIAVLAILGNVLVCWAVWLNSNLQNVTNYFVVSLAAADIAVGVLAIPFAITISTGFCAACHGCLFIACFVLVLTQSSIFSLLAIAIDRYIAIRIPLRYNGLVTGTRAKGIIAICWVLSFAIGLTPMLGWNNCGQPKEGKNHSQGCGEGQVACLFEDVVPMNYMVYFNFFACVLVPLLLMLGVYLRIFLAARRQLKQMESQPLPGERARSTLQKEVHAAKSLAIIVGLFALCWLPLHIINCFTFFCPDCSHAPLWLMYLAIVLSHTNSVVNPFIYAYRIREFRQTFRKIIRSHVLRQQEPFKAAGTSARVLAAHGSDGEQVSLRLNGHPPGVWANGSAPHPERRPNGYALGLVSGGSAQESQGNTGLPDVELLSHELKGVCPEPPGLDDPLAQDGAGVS
Experiment: Ligand binding assay for adenosine A2a receptor ([3H]CGS21680, HEK293 plasma membrane)
Details: radioligand [3H]CGS21680, HEK293 membranes, room temperature 2 hours; read-out: Ki (nM) A2a binding
Method: Ligand Binding Assay for Adenosine A2a Receptor Ligand binding assay of adenosine A2a receptor was performed using plasma membrane of HEK293 cells containing human A2a adenosine receptor (PerkinElmer, RB-HA2a) and radioligand [^3H]CGS21680 (PerkinElmer, NET1021). […] Nonspecific binding was determined by 80 mM NECA. […] Plates were counted on Packard Topcount for [^3H]. Data was analyzed in Microsoft Excel and GraphPad Prism programs.
Class definitions on Ki: LOW (below 9 nM), MID (9 nM to below 40 nM), HIGH (40 nM or more)

Nc1nc(-c2ccco2)c2c(n1)-c1ccc(Br)cc1C2=O [Compound 16] ... LOW
CCN(CC)CCNc1nc(-c2ccccc2)c2c(n1)-c1ccccc1C2=O [Compound 27] ... HIGH
COc1ccc(-c2nc(N)nc3c2Cc2ccccc2-3)cc1 [Compound 1] ... HIGH

Which category does the recorded Ki put CN1CCCC1COC(=O)c1c(N)nc(-c2ccco2)c2c1-c1ccccc1C2=O (stereo not drawn) [Compound 82] in?
MID

Which category does the recorded Ki put CN(C)CCOC(=O)c1c(N)nc(-c2ccco2)c2c1-c1ccccc1C2=O [Compound 70] in?
MID

Which category does the recorded Ki put Nc1nc(-c2ccc(F)cc2)c2c(n1)-c1ccccc1C2=O [Compound 38] in?
LOW

Which category does the recorded Ki put Nc1nc(-c2ccccc2)c2c(n1)-c1cccc(CN3CCCCC3)c1C2=O [Compound 53] in?
HIGH

----------
For each of the compounds below, state its Ki.
target: human adenosine A2a receptors (Homo sapiens, UniProt P29274); construct: expressed in transfected cells; host or cells: CHO-K1 cells with cAMP-inducible beta-galactosidase reporter gene; assay: Adenosine A2a receptor functional assay, antagonist mode (cAMP-inducible beta-galactosidase reporter, 50 nM NECA); format: cell-based; details: CHO-K1 cells, read-out: Ki (nM) A2a antagonist function
Sequence (P29274 whole entry): as above
Give bare numbers, in nM.

Consider the worked cases shown below.
CN(C)CCNC(=O)c1c(N)nc(-c2ccco2)c2c1-c1ccccc1C2=O ... 22.1
N#Cc1c(N)nc(-c2ccoc2)c2c1-c1ccccc1C2=O ... 0.069
N#Cc1c(N)nc(-c2ccco2)c2c1-c1c(F)c(F)c(F)c(F)c1C2=O ... 12.5
CN(C)CCN(C)Cc1cccc2c1C(=O)c1c(-c3ccccc3)nc(N)nc1-2 ... 40.1
Nc1nc(-c2ccco2)c2c(n1)-c1ccccc1C2 ... 2.63
N#Cc1c(N)nc(-c2ccsc2)c2c1-c1ccccc1C2=O ... 0.06
Nc1nc(-c2cccc([N+](=O)[O-])c2)c2c(n1)-c1ccccc1C2=O ... 4.85
Nc1nc(Nc2ccccc2)c2c(n1)-c1ccccc1C2=O ... 3.68
CC(COC(=O)c1c(N)nc(-c2ccccc2)c2c1-c1ccccc1C2=O)CN(C)C (stereo not shown) ... 13.9
Nc1nc(-c2cc(F)cc(F)c2)c2c(n1)-c1ccccc1C2=O ... 1.42

Give me Ki for each of these compounds, listed below.
1. COc1cccc(-c2nc(N)nc3c2C(=O)c2ccccc2-3)c1
2. CC(CN(C)C)OC(=O)c1c(N)nc(-c2ccco2)c2c1-c1ccccc1C2=O (stereo not shown)
3. Nc1nc(-c2ccco2)c2c(n1)-c1ccc(Br)cc1C2=O
4. Cc1ccc(-c2nc(N)nc3c2C(=O)c2ccccc2-3)o1

[1.63, 10.1, 0.169, 0.005]

Give me Ki for each of these compounds, listed below.
1. Nc1nc(-c2ccc(F)c(F)c2)c2c(n1)-c1ccccc1C2=O
2. N#Cc1c(N)nc(-c2cccc(F)c2)c2c1-c1ccccc1C2=O
3. CSc1nc(N)nc2c1C(=O)c1ccccc1-2
4. Nc1nc(-c2ccccc2)c2c(n1)-c1cccc(CN3CCOCC3)c1C2=O
5. N#Cc1c(N)nc(-c2ccccc2)c2c1-c1ccccc1C2=O
6. CN(C)CCOC(=O)c1c(N)nc(-c2ccccc2)c2c1-c1ccccc1C2=O
7. Nc1nc(-c2ccc(F)cc2)c2c(n1)-c1ccccc1C2=O
8. Nc1nc(-c2ccccc2)c2c(c1C(=O)OCCN1CCCC1)-c1ccccc1C2=O

[3.53, 0.618, 575, 3.26, 0.138, 29, 0.956, 48.9]

Give me Ki for each of these compounds, listed below.
1. N#Cc1c(N)nc(-c2ccco2)c2c1-c1ccccc1C2O (stereo not shown)
2. C[C@H](O)[C@@H](O)c1cccc2c1-c1nc(N)nc(-c3ccccc3)c1C2=O
3. CC(=O)N1CCN(Cc2cccc3c2C(=O)c2c(-c4ccccc4)nc(N)nc2-3)CC1
4. CCN(CC)CCNc1nc(-c2ccccc2)c2c(n1)-c1ccccc1C2=O
5. Nc1nc(-c2cccnc2)c2c(n1)-c1ccccc1C2=O
6. Nc1nc(-c2ccncc2)c2c(n1)-c1ccccc1C2=O
7. N#Cc1c(N)nc(-c2cccnc2)c2c1-c1ccccc1C2=O
8. Nc1nc(-c2cccc(F)c2)c2c(n1)-c1ccccc1C2=O

1: 1.12; 2: 0.34; 3: 7.94; 4: 68.3; 5: 9.64; 6: 4.56; 7: 0.73; 8: 0.926

Specify Ki for `Nc1nc(-c2ccco2)c2c(n1)-c1cc(C(F)(F)F)ccc1C2=O` and stop.
0.55

----------
target: Adenosine A1 receptor (Homo sapiens, UniProt P30542); experiment: A1 antagonist function (no method described); format: cell-based
measuredParameter: Ki (nM)
Give bare numbers, in nM.

Consider the worked cases shown below.
COC(=O)C1CCCCN1Cc1cccc2c1C(=O)c1c(-c3ccccc3)nc(N)nc1-2 (stereo not drawn) [Compound 54] ... 19.6
N#Cc1c(N)nc(-c2ccsc2)c2c1-c1ccccc1C2=O [Compound 73] ... 9.7

Give me Ki for each of these compounds, listed below.
1. COc1cccc(-c2nc(N)c(C#N)c3c2C(=O)c2ccccc2-3)c1 [Compound 74]
2. CN(C)CCOC(=O)c1c(N)nc(-c2ccsc2)c2c1-c1ccccc1C2=O [Compound 93]
3. CC(C)Cc1nc(N)c(C#N)c2c1C(=O)c1ccccc1-2 [Compound 86]
4. Nc1nc(-c2ccoc2)c2c(n1)-c1ccccc1C2=O [Compound 44]
5. Nc1nc(-c2ccco2)c2c(n1)-c1cccc(O)c1C2=O [Compound 17]
6. Nc1nc(-c2ccccc2)c2c(c1C(=O)OCCCN1CCOCC1)-c1ccccc1C2=O [Compound 84]

[7.28, 104, 39.3, 7.4, 111, 27.4]

----------
molecular target: human adenosine A2a receptors (Homo sapiens); construct: expressed in transfected cells; host or cells: CHO-K1 cells with cAMP-inducible beta-galactosidase reporter gene; assay: Adenosine A2a receptor functional assay, antagonist mode (cAMP-inducible beta-galactosidase reporter, 50 nM NECA); type: cell-based; conditions: CHO-K1 cells, read-out: Ki (nM) A2a antagonist function
For each of the compounds below, state its log10 Ki.
Remember, log10 of Ki, in nM.

Consider the worked cases shown below.
Nc1nc(-c2ccc(Cl)cc2)c2c(n1)-c1ccccc1C2=O ... 0.74
CN1CCN(C(=O)c2c(N)nc(-c3ccco3)c3c2-c2ccccc2C3=O)CC1 ... 1.20
COc1ccc(-c2nc(N)nc3c2Cc2ccccc2-3)cc1 ... 2.37
Nc1nc(-c2ccccc2)c2c(c1C(=O)O)-c1ccccc1C2=O ... 2.39
CN(C)CCOC(=O)c1c(N)nc(-c2ccsc2)c2c1-c1ccccc1C2=O ... 1.37

Give me log10 Ki for each of these compounds, listed below.
1. CCOC(=O)C1CCCN(Cc2cccc3c2C(=O)c2c(-c4ccccc4)nc(N)nc2-3)C1 (stereo not drawn)
2. Nc1nc(-c2ccco2)c2c(n1)-c1cc(Br)ccc1C2=O
3. Nc1nc(-c2ccco2)c2c(n1)-c1c(F)cccc1C2=O
4. Nc1nc(-c2ccoc2)c2c(n1)-c1ccccc1C2=O

0.77
-0.58
-1.28
-0.68

----------
For each of the molecules below, state its Ki.
Molecular target: Adenosine A1 receptor (Homo sapiens, UniProt P30542)
Sequence (P30542 1-326): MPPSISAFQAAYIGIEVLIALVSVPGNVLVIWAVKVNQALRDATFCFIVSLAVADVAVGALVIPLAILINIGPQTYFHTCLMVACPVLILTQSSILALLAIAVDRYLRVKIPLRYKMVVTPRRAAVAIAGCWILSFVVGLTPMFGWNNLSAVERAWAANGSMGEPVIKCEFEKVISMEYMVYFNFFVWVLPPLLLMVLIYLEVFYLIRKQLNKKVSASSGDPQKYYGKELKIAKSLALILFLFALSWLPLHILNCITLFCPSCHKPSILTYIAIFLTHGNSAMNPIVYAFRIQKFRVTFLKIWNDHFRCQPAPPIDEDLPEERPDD
Experiment: A1 antagonist function (no method described)
Format: cell-based
Give bare numbers, in nM.

Consider the worked cases shown below.
Nc1nc(-c2ccco2)c2c(n1)-c1cc(Cl)c(Cl)cc1C2=O [Compound 25] ... 17.4
Nc1nc(-c2cccc(O)c2)c2c(n1)-c1ccccc1C2=O [Compound 13] ... 10.3

Give me Ki for each of these molecules, listed below.
1. N#Cc1c(N)nc(-c2ccoc2)c2c1-c1ccccc1C2=O [Compound 66]
2. CC(=O)N1CCN(Cc2cccc3c2C(=O)c2c(-c4ccccc4)nc(N)nc2-3)CC1 [Compound 59]
3. C[C@H](O)[C@@H](O)c1cccc2c1C(=O)c1c(-c3ccccc3)nc(N)nc1-2 [Compound 32]
4. COc1ccc(-c2nc(N)nc3c2Cc2ccccc2-3)cc1 [Compound 1]

1: 15.6; 2: 34.1; 3: 9.89; 4: 53

Specify Ki for Nc1nc(-c2ccco2)c2c(n1)-c1c(F)cccc1C2=O [Compound 36] and stop.
2.52
